Parameter pEC50: see the listing below.
- Measured target: recombinant human GPR52 (Homo sapiens)
- Sequence (Q9Y2T5 whole entry): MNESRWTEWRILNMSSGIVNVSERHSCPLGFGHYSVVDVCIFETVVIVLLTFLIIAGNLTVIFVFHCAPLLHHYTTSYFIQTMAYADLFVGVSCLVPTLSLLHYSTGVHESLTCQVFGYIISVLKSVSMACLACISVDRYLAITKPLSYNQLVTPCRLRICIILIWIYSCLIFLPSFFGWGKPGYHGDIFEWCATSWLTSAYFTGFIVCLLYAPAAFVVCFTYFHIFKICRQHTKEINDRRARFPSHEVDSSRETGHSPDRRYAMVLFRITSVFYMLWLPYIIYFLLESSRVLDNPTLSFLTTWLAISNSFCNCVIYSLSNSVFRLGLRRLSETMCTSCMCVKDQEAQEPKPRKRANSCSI
- Method notes: TR-FRET cAMP assay (LANCE Ultra cAMP Kit), GPR52 activity
- Conditions used: Flp-In-CHO cells stably expressing recombinant human GPR52; cAMP production, normalized to the positive control
pEC50: −log10 of the molar value.

Below: 4 compounds and their reported pEC50.
{"columns": ["Compound", "Value observed"],
 "data": [
  ["Cc1cc(-c2cc(COc3ccccc3)ccn2)ccc1C(N)=O [Example 25]", "6.00 to 7.00"],
  ["Cc1cc(-c2cc(COc3ccc4c(c3)OCC4)ccn2)ccc1C(N)=O [Example 63]", "6.00 to 7.00"],
  ["Cc1cc(-c2cc(COc3ccc(C#N)c(F)c3)ccn2)ccc1C(=O)NCCN(C)C [Example 80]", "> 7.60"],
  ["Cc1cc(-c2cncc(COc3ccc(C#N)c(F)c3)c2)ccc1C(N)=O [Example 91]", "< 6.00"]
]}

# input for lookup
Value of measured pEC50 for the entry Cc1cc(F)ccc1OCc1ccnc(-c2ccc(C(N)=O)c(C)c2)c1 [Example 29] : 6.00 to 7.00
